This listing pairs compounds with measured pEC50.
Target: MerTK (Homo sapiens)
Construct: Seed HUVECs (10K cells/well) in EBM-2 complete media
Assay: PAKT HTRF-HUVEC assay (pAkt Ser473 HTRF after anti-human MerTK-XL stimulation)
Conditions: HUVEC cells, 1 hour compound, stimulated with anti-human MerTK-XL 1 ug/mL for 10 minutes, read-out: inhibition of MerTK
Bear in mind: pEC50 is minus log10 of a mol/L concentration; give just that figure.

O=c1c2cc(N3CC4(COC4)C3)ccc2c2cnc(NC3CC(F)(F)C3)nc2n1[C@H]1CC[C@H](O)CC1    5.10
O=c1c2ccccc2c2cnc(NCCC3CC3)nc2n1[C@H]1CC[C@H](O)CC1    6.45
CC(C)(C)N1CCN(Cc2ccc3c(c2)c(=O)n([C@H]2CC[C@H](O)CC2)c2nc(NCC4CC4)ncc32)CC1 [Compound 60]    8.38

Ask | Determine its reported pEC50: "CCCCNc1ncc2c3ccc(N4CCN(C)CC4)cc3c(=O)n([C@H]3CC[C@H](O)CC3)c2n1"
Reply | 7.64

Ask | Determine its reported pEC50: "CCCCNc1ncc2c3ccc(CN4CCN(C)CC4)cc3c(=O)n([C@H]3CC[C@H](C(=O)NC4COC4)CC3)c2n1"
Reply | 6.83

Ask | Determine its reported pEC50: "CN1CCN(Cc2ccc3c(c2)c(=O)n([C@H]2CC[C@H](O)CC2)c2nc(NCCC4CC4)ncc32)CC1"
Reply | 7.78

Ask | Determine its reported pEC50: "CCCCNc1ncc2c3ccc(CN4CCN(C)CC4)cc3c(=O)n([C@H]3CC[C@H](O)CC3)c2n1"
Reply | 7.54

Ask | Determine its reported pEC50: CN1CCN(c2ccc3c(c2)c(=O)n(C2CCC(C)(O)CC2)c2nc(NCC4CC4)ncc32)CC1 (centres unmarked)
Reply | 7.16

Ask | Determine its reported pEC50: O=c1c2cc(CN3CCN(c4ccncc4)CC3)ccc2c2cnc(NCC3CC3)nc2n1[C@H]1CC[C@H](O)CC1 [Compound 194]
Reply | 7.47

Ask | Determine its reported pEC50: "CN1CCN(c2ccc3c(c2)c(=O)n([C@H]2CC[C@H](O)CC2)c2nc(NCC4CCC4)ncc32)CC1"
Reply | 7.41

Ask | Determine its reported pEC50: O=c1c2cc(N3CC4(COC4)C3)ccc2c2cnc(NC3CC(F)C3)nc2n1[C@H]1CC[C@H](O)CC1 (some centres unmarked)
Reply | 5.97

Ask | Determine its reported pEC50: "N[C@H]1CC[C@H](n2c(=O)c3cc(Cl)ccc3c3cnc(NCC4CC4)nc32)CC1"
Reply | 6.53

###

Target: MerTK (Homo sapiens, UniProt Q12866)
Construct: Seed HUVECs (10K cells/well) in EBM-2 complete media
Sequence (Q12866 21-999): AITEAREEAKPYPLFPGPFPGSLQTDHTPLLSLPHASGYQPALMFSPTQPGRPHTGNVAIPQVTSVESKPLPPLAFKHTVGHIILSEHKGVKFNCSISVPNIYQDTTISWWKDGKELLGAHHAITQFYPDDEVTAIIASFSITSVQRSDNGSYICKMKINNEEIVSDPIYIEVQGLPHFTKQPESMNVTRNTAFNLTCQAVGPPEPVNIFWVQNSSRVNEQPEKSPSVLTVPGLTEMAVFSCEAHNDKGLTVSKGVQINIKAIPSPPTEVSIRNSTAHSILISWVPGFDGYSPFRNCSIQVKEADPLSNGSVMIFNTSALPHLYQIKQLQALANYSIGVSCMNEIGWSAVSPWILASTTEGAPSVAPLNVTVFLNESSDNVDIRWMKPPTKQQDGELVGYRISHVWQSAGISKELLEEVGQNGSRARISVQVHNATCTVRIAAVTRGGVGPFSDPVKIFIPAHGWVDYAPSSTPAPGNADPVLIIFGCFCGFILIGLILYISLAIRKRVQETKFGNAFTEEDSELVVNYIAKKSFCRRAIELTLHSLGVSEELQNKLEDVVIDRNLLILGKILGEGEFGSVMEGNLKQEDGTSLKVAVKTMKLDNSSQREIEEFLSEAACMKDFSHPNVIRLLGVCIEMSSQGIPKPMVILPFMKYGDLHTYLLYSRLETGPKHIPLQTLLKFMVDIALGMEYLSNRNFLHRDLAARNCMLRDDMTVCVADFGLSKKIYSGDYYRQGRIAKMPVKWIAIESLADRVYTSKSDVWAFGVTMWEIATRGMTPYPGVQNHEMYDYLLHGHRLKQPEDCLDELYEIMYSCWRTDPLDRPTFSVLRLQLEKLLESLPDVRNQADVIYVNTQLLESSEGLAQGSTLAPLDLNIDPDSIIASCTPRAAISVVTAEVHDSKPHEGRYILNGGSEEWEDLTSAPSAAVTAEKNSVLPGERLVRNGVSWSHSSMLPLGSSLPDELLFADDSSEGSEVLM
Assay: PAKT HTRF-HUVEC assay (pAkt Ser473 HTRF after anti-human MerTK-XL stimulation)
Conditions: HUVEC cells, 1 hour compound, stimulated with anti-human MerTK-XL 1 ug/mL for 10 minutes, read-out: inhibition of MerTK
pEC50: −log10 of the molar value.
Think of 6 as a floor: if pEC50 stands on it or above, it is rule met; beneath it, rule not met.

Ask | Given CN1CCN(c2ccc3c(c2)c(=O)n([C@H]2CC[C@H](O)CC2)c2nc(NCC4CC4)ncc32)CC1 [Compound 87] , state whether its pEC50 is at least 6.
Reply | rule met

Ask | Given CCC(F)(F)CNc1ncc2c3ccc(CN4CCOCC4)cc3c(=O)n([C@H]3CC[C@H](O)CC3)c2n1 [Compound 1] , state whether its pEC50 is at least 6.
Reply | rule met

Ask | Given CN1CCN(Cc2ccc3c(c2)c(=O)n([C@H]2CC[C@H](O)CC2)c2nc(NC4CC(F)C4)ncc32)CC1 (some centres unmarked) [Compound 13] , state whether its pEC50 is at least 6.
Reply | rule met

Ask | Given O=c1c2cc(CN3CC[N@+]4([O-])CC[C@@H]3CC4)ccc2c2cnc(NCC3CC3)nc2n1C1CCC(O)CC1 (relative stereo) [Compound 51] , state whether its pEC50 is at least 6.
Reply | rule not met

Ask | Given CCCCNc1ncc2c3ccc(N4CCN(C)[C@H](C)C4)cc3c(=O)n([C@H]3CC[C@H](O)CC3)c2n1 [Compound 90] , state whether its pEC50 is at least 6.
Reply | rule met

Ask | Given CCCCNc1ncc2c3ccc(CN4CCN(C)CC4)cc3c(=O)n([C@H]3CC[C@H](C(=O)O)CC3)c2n1 [Compound 132] , state whether its pEC50 is at least 6.
Reply | rule not met

Ask | Given O=c1c2cc(N3CCN(C4COC4)CC3)ccc2c2cnc(NCC3CC3)nc2n1[C@H]1CC[C@H](O)CC1 [Compound 178] , state whether its pEC50 is at least 6.
Reply | rule met

Ask | Given CCCCNc1ncc2c3ccccc3c(=O)n([C@H]3CC[C@@](C)(O)CC3)c2n1 [Compound 115] , state whether its pEC50 is at least 6.
Reply | rule met

Ask | Given CCCCNc1ncc2c3ccc(CN4CCN(C)CC4)cc3c(=O)n([C@H]3CC[C@H](NCCO)C3)c2n1 [Compound 238] , state whether its pEC50 is at least 6.
Reply | rule met

Ask | Given CC(C)CCNc1ncc2c3ccc(CN4CCN(C)CC4)cc3c(=O)n([C@H]3CC[C@H](O)CC3)c2n1 [Compound 129] , state whether its pEC50 is at least 6.
Reply | rule met

Where these numbers come from: patent US11110082B2
